- Assayed system: human TLR8 (Homo sapiens, UniProt Q9NR97)
- Sequence (Q9NR97 27-1041): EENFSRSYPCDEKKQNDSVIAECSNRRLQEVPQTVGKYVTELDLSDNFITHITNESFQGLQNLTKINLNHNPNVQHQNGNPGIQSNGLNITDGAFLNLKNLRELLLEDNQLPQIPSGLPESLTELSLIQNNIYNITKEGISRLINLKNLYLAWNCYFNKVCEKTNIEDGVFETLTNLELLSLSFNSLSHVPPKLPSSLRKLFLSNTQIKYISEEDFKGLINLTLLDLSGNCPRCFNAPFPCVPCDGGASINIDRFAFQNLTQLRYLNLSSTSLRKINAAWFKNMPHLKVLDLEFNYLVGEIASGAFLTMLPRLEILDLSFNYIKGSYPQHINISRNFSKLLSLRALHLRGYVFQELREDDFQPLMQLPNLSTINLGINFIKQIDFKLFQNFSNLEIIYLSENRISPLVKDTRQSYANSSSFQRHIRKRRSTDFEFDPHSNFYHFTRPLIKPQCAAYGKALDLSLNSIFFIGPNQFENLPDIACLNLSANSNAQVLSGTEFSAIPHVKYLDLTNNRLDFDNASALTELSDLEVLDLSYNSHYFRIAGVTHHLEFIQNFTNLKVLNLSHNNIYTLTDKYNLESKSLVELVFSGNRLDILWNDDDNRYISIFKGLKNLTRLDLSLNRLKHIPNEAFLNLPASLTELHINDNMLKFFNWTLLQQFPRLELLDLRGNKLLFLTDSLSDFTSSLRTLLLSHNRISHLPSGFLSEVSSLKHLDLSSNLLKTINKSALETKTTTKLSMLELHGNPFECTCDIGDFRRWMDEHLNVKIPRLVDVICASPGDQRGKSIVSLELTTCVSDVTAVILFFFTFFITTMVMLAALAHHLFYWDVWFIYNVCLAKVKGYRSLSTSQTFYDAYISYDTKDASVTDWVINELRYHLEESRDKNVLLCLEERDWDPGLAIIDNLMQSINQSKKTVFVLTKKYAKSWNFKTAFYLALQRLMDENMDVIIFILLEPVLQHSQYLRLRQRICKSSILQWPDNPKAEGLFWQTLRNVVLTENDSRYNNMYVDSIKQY
- Protocol summary: HEK293-Blue-hTLR-8 cells assay (SEAP reporter, R848 stimulation)
- Protocol conditions: HEK293-Blue-hTLR8 cells, R848 ligand, 20 hrs incubation
pIC50: −log10 of the molar value.
Decide by pIC50: equal to or exceeding 7 means 1, less means -1.

> print(dat)
                                   compound                            assayed.system  category
1  C[C@@H]1CN(c2ccc(C(F)(F)F)c3nccnc23)C[C@H]1CNC1CCCNCC1 (some centres unmarked)  human TLR8 (Homo sapiens, UniProt Q9NR97)        -1
2  N#Cc1ccc(N2C[C@H](CN3CCC4(CC3)CNCCO4)[C@@H](C(F)(F)F)C2)c2nccnc12  human TLR8 (Homo sapiens, UniProt Q9NR97)         1
3  N#Cc1ccc(N2CC(CN3CC4CCC(C3)C4N)C3(CC3)C2)c2nccnc12 (centres unmarked)  human TLR8 (Homo sapiens, UniProt Q9NR97)         1
4  N#Cc1ccc(N2CC(CN3CCC4(CCNC4)C3)C3(CC3)C2)c2cccnc12 (centres unmarked)  human TLR8 (Homo sapiens, UniProt Q9NR97)        -1
